So I've got a bunch of compounds here, and I need their growth inhibition values.
- assayText: NCI Yeast Anticancer Drug Screen. Data for the sgs1 mgt1 strain (AID 161);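 note: 0% = growth of cultures given vehicle only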
- testParameters: S. cerevisiae sgs1 mgt1 strain, at 5.0 µM (retest, dose inferred, filed as 0.5), stronger effect = higher value
About 79,000 compounds went through this panel and 15% of them were active in at least one assay; those are over-represented in the sample as a whole.
One number for each entry, in %.

Past entries and their recorded results:
Cc1csc(=S)n1OC(=O)NC1CCCCC1 = 32
CCC(C)(C)c1ccc(Oc2cccc(C(=O)O)c2)cc1 = -1
c1ccc2c(OCC3CO3)cccc2c1 (stereo unspecified) = 50

Please look at the items below and tell me growth inhibition for each one, in order.
1. COc1cc2cc3c4cc(OC)c(OC)cc4cc[n+]3c(C)c2cc1OC
2. COc1ccc(/C=C/C(=O)c2ccccc2)cc1OC
3. Cc1ccc2nc(-c3cccc([N+](=O)[O-])c3)oc(=O)c2c1

-28
15
-14

---

- assayText: NCI Yeast Anticancer Drug Screen. Data for the mlh1 strain (AID 171);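 note: 0% = growth of vehicle-treated control cultures of the same strain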
- testParameters: S. cerevisiae mlh1 strain growth inhibition; at 11.0 µM; stronger effect = higher value
The panel holds about 79,000 compounds, 15% with a hit somewhere; the sample as a whole holds those more often.
assayReadout: growth inhibition (%)
One number for each entry, in %.

COC(=O)CCC(NC(=S)N/N=C(\C)c1ccccn1)C(=O)OC (configuration not stated) = 23
Cc1ccccc1N=C(NO)c1ccccc1 = 2
CN1C(=O)c2ccc3ccccc3c2C1=O = 22
Cc1nc2ccc(N=NN(C)C)cc2[nH]1 = 15
O=c1nc2n(Cc3ccccc3)c3ccccc3nc-2c(=O)[nH]1 = 65
CCOC1Oc2ccccc2-c2nc(N)ncc21 (configuration not stated) = 1

Please look at the items below and tell me growth inhibition for each one, in order.
1. O=C(O)c1cc2ccccc2c2c1C(=O)c1ccccc1-2
2. Nc1ccc2c(c1)C(=O)c1ccc(F)cc1-2
3. OCC(CO)C(c1cccc2ccccc12)c1cccc2ccccc12
4. CN(C)CCCCN1c2ccccc2Sc2ccc(N=[N+]=[N-])cc21

1. 59
2. 14
3. 99
4. 35

Please look at the items below and tell me growth inhibition for each one, in order.
1. O=C1C(Br)=C(c2ccccc2)O/C1=C/C(=O)c1ccc(Br)cc1
2. O=C(NO)Nc1cc(Cl)cc(Cl)c1
3. CC(C)(C)c1ccc(NS(=O)(=O)c2ccc(N)cc2)cc1
4. COc1cccc(/C=N/C(/N=C/c2cccc(OC)c2O)c2cccc(OC)c2O)c1O

[9, 99, 7, 7]

Please look at the items below and tell me growth inhibition for each one, in order.
1. CC(C)c1ccc(NC(=S)NC(=O)c2ccccc2)cc1
2. N#CC(C#N)=NNc1ccc(S(=O)(=O)O)cc1
3. CN(C)CCOC1(Cc2ccc(F)cc2)CCC(C(C)(C)C)CC1 (configuration not stated)
4. CSc1nc(C)c(CCOC(C)=O)c(N=P(c2ccccc2)(c2ccccc2)c2ccccc2)n1
5. Cc1ccc(S/C(=C\C(=O)O)c2ccccc2)cc1
6. CCOC(=O)c1cc([N+](=O)[O-])c(Sc2ncnc3nc[nH]c23)c([N+](=O)[O-])c1
7. C/C(=N\Nc1ccc([N+](=O)[O-])cc1[N+](=O)[O-])c1sc(-n2nc(-c3ccccc3)cc2-c2ccccc2)nc1C
8. O=C(NNc1ccccc1)C(O)C(O)C(O)C(O)C(O)CO (configuration not stated)

[29, 5, 11, -2, 6, 50, -16, 22]

---

- assayText: NCI Yeast Anticancer Drug Screen. Data for the mec2-1 strain (AID 157)
- testParameters: S. cerevisiae mec2-1 strain, at 100.0 µM, stronger effect = higher value
The panel holds about 79,000 compounds, 15% with a hit somewhere; the sample as a whole holds those more often.
So I've got a bunch of compounds here, and I need their growth inhibition values.
Give bare numbers, in %.

C=C1CC(CCCl)(c2ccccc2)OC1=O (configuration not stated) = 99

Please look at the items below and tell me growth inhibition for each one, in order.
1. CC(=O)OC1CC2C(C)(C)C(=O)C=C[C@]2(C)C2CCC3(C)C(=CCC3[C@H](CO)C[C@H](O)C(=O)C(C)(C)O)[C@]12C (some centres not stated)
2. C=C1C(=O)OC2CC1C(OC(C)=O)C/C(C)=C/CC/C(C)=C\CCC2(C)O (configuration not stated)
3. CCCCC(CC)C(=O)[O][Sn]([CH2]CCC)([CH2]CCC)[O]C(=O)C(CC)CCCC (configuration not stated)
4. O=C(O)Cc1cc(F)ccc1C(=O)O
5. CC1=CC(=C(c2ccc(N)cc2)c2ccc(N)cc2)C=CC1=N

[53, 89, 98, 30, 73]

---

- assayText: NCI Yeast Anticancer Drug Screen. Data for the rad52 strain (AID 147);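 note: 0% = growth of vehicle-treated control cultures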
- testParameters: S. cerevisiae rad52 mutant growth inhibition; at 100.0 µM; stronger effect = higher value
The panel holds about 79,000 compounds, 15% with a hit somewhere; the sample as a whole holds those more often. The source made the active and inactive calls. No stated cut-off is given here; in the data, active means growth inhibition above about 70%; inactive means the rest.
assayReadout: growth inhibition

Past entries and their recorded results:
Oc1ccc(-c2nc(-c3ccc(F)cc3)c(-c3ccc4ccccc4n3)[nH]2)cc1 = 88% (active)
CCCCN(CCCC)C(=O)/C=C/c1ccccc1 = 93% (active)
CCOC(=N)c1ccc(O)c(OC)c1 = -2% (inactive)
C[C@]12CC[C@H](O)CC1=CC[C@@H]1C2CC[C@]2(C)C(=O)NC(=O)CC12 (some centres not stated) = 85% (active)
CN1CCN(C(=O)/C=C/C(=O)c2ccccc2)CC1 = 86% (active)
O=C1C=C(N2CCN(c3ccccn3)CC2)C(=O)c2c(O)ccc(O)c21 = 45% (inactive)

Please look at the items below and tell me growth inhibition for each one, in order.
1. CC1SC2(C(=O)Nc3ccc(Cl)cc32)N(c2ccc(Cl)cc2)C1=O (configuration not stated)
2. O=C1Nc2ccccc2/C1=C/c1ccccc1

1. 89% (active)
2. 80% (active)

Please look at the items below and tell me growth inhibition for each one, in order.
1. CCOC(=O)c1[nH]cc(C)c1-c1cccn1-c1ccc(Cl)cc1[N+](=O)[O-]
2. COC(=O)Oc1cc(Cl)c(Cl)cc1Cl
3. O=c1c2ccccc2nc(-c2ccccc2)n1O
4. O=C(COC(=O)c1ccccc1)c1ccc(Br)cc1

1. 89% (active)
2. 9% (inactive)
3. 97% (active)
4. 98% (active)

---

- assayText: NCI Yeast Anticancer Drug Screen. Data for the wt2 strain (AID 169);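 note: 0% = growth of vehicle-treated yeast cultures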
- testParameters: S. cerevisiae wt2 strain growth inhibition; at 100.0 µM; stronger effect = higher value
About 79,000 compounds went through this panel and 15% of them were active in at least one assay; those are over-represented in the sample as a whole.
Classification field: 1 (yes) = growth inhibition at or over 80%; 0 (no) = growth inhibition under 80%.

Below are worked cases with known answers.
CC1=C(C(=O)NCc2ccccc2)C(c2ccccc2)C(C(=O)NCc2ccccc2)=C(C)N1 = 1 (yes)
CC[N+]1(C)CCC(O)(c2ccc(OC)cc2)C(C(=O)c2ccc(OC)cc2)C1 (centres undefined) = 0 (no)
O=[N+]([O-])c1cc(S(=O)(=O)Nc2ccccc2)ccc1Nc1ccccc1 = 1 (yes)
C=C1CCC(O)C/C1=C/C=C1\CCCC2(C)C1CCC2C(C)CCCC(C)C (centres undefined) = 0 (no)
COC(=O)NC1C(C)OC(OC2C/C=C(/C)C3C=CC4C(OC5CC(OC6CC(O)C(OC7CC(O)C(OC)C(C)O7)C(C)O6)C(O)C(C)O5)C(C)CC(C)C4C3(C)/C(O)=C3\C(=O)OC4(CC(C)C(CO)=CC4/C=C\2C)C3=O)CC1(C)[N+](=O)[O-] (centres undefined) = 0 (no)
CC(=O)OC1CC2C(C)(C)C(=O)C=C[C@]2(C)C2CCC3(C)C(=CCC3[C@H](CO)C[C@H](O)C(=O)C(C)(C)O)[C@]12C (some centres undefined) = 1 (yes)
OC1(c2ccccc2)CCCc2ccc(Cl)cc21 (centres undefined) = 1 (yes)
NCCNCCNc1ccc(NCCNCCN)c2c1C(=O)c1c(O)ccc(O)c1C2=O = 0 (no)

Could you please find out whether COc1ccc(/C=C/C(=O)c2ccccc2)cc1OC has growth inhibition that meets 80% or exceeds it?
1 (yes)

---

So I've got a bunch of molecules here, and I need their growth inhibition values.
- assayText: NCI Yeast Anticancer Drug Screen. Data for the wt1 strain (AID 149);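 note: 0% = growth of vehicle-treated wt1 cultures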
- testParameters: S. cerevisiae wt1 strain (SPY 50644) growth inhibition; at 33.0 µM; stronger effect = higher value
The panel holds about 79,000 compounds, 15% with a hit somewhere; the sample as a whole holds those more often. Active and inactive are the calls of the source. No stated cut-off is given here; in the data, active means growth inhibition above about 70%; inactive means the rest.

Past entries and their recorded results:
Cc1cc2c(cc1C)[n+]([O-])c(-c1nc3ccccc3s1)c(N)[n+]2[O-] = 20% (inactive)
COC(=O)CC1(O)C(/C=C/c2ccccc2)C(C(=O)OC)C(=O)C(C(=O)OC)C1C(=O)OC (centres undefined) = -1% (inactive)
O/N=C\c1c(O)ccc2ccccc12 = 5% (inactive)
CN1CCN(C(=O)/C=C/C(=O)c2ccccc2)CC1 = 47% (inactive)
COc1ccc(C(=O)Oc2ccccc2Br)cc1 = -10% (inactive)

Please look at the items below and tell me growth inhibition for each one, in order.
1. CC1=NOC(=O)/C1=C/c1ccc2c(c1)OCO2
2. CCOC(=O)c1[nH]n(-c2ccccc2)c(=O)c1C=NC(=S)C(N)=S
3. O=c1ccc2ccccc2c2ccccc12
4. CC[n+]1oc(C(=O)c2ccc(Cl)cc2)c(-c2ccccc2)c1-c1ccccc1.[Cl][Fe]([Cl])([Cl])[Cl]
5. CCOC(=O)c1ccc(NC(=O)O/N=C(/Cl)C(C)C)cc1
6. COc1cc(/C=C2\NC(=O)N(/C=C3\C(=O)Oc4ccccc4C3=O)C2=O)ccc1O
7. COc1cc(C2c3cc4c(cc3OC(OC(C)=O)C2C)OCO4)cc(OC)c1OC (centres undefined)

1. 6% (inactive)
2. 29% (inactive)
3. 98% (active)
4. 20% (inactive)
5. -14% (inactive)
6. 63% (inactive)
7. -11% (inactive)

Please look at the items below and tell me growth inhibition for each one, in order.
1. CN(C)c1ccc2c(SCC(=O)OCC(=O)[C@@]3(O)CC[C@H]4[C@@H]5CCC6=CC(=O)C=C[C@]6(C)[C@H]5C(=O)C[C@@]43C)c3ccc(N(C)C)cc3nc2c1
2. CCOc1ccccc1N=Cc1c2ccccc2cc2ccccc12
3. O=[N+]([O-])c1cc[n+]([O-])cc1
4. O=C(Nc1ccc(Cl)cc1)Nc1nnc2nc(C(C(=O)c3cccc([N+](=O)[O-])c3Cl)c3nc4nnc(NC(=O)Nc5ccc(Cl)cc5)n4[nH]c3=O)c(=O)[nH]n12
5. CN(C)C=NC1CCC(C(C)(C)C)CC1 (centres undefined)
6. CN(C)N=Nc1ccccc1C(=O)NC#N

["91% (active)", "97% (active)", "-14% (inactive)", "-1% (inactive)", "51% (inactive)", "98% (active)"]

Please look at the items below and tell me growth inhibition for each one, in order.
1. CCCC(=O)Oc1c(C)cc([N+](=O)[O-])cc1[N+](=O)[O-]
2. NC(=S)NC(=S)Nc1ccccc1
3. O=C(/C=C(/c1ccccc1)N1CCCCC1)c1ccccc1
4. CCc1nc2ccc(NCCN(C)C)c3c(=O)c4ccccc4n1c23
5. CC1=CC(=C(c2ccc(N)cc2)c2ccc(N)cc2)C=CC1=N
6. COC(=O)NC1C(C)OC(OC2C/C=C(/C)C3C=CC4C(OC5CC(OC6CC(O)C(OC7CC(O)C(OC)C(C)O7)C(C)O6)C(O)C(C)O5)C(C)CC(C)C4C3(C)/C(O)=C3\C(=O)OC4(CC(C)C(CO)=CC4/C=C\2C)C3=O)CC1(C)[N+](=O)[O-] (centres undefined)
7. CCCCNC1CCC2(SCCS2)c2[nH]c3ccccc3c21 (centres undefined)

1. 99% (active)
2. 0% (inactive)
3. 9% (inactive)
4. 22% (inactive)
5. 2% (inactive)
6. 22% (inactive)
7. 1% (inactive)
